Source: ChEMBL document CHEMBL4251578

Listed molecules paired with reported pIC50
# Test system: SMMC-7721
# protocol: Antiproliferative activity against human SMMC7721 cells after 72 hrs by CCK-8 assay
# Format: functional, cell-based
# condition-details: SMMC-7721, 72 h
pIC50: −log10 of the molar value.
measured-attribute: pIC50

In [3]: df
Out[3]:
                                 mol_smiles  observed_measurement
0  COC(=O)c1ccc2c(c1)CCN2C(=S)SCc1ccc(C(=O)Nc2ccccc2N)cc1                < 4.49
1  Nc1ccccc1NC(=O)c1ccc(CSC(=S)N2CCN(c3ccc(F)cc3)CC2)cc1                < 4.49
2  Nc1ccc(F)cc1NC(=O)c1ccc(CNC(=O)/C=C/c2cccnc2)cc1                < 4.59
